Measured pKd, listed per entry.
target: T1, hFc-hROR1 (extracellular domain of human ROR1 fused to the Fc domain of human IgG1) (human, UniProt Q01973 30-406); assay: SPR (Biacore X100); hFc-hROR1 captured by anti-human Fcγ antibody on CM5; Fab as analyte; 1:1 Langmuir fit
T1 construct: extracellular domain; also called hFc-ROR1; not shown: Fc domain of human IgG1
T1 sequence (Q01973 30-406): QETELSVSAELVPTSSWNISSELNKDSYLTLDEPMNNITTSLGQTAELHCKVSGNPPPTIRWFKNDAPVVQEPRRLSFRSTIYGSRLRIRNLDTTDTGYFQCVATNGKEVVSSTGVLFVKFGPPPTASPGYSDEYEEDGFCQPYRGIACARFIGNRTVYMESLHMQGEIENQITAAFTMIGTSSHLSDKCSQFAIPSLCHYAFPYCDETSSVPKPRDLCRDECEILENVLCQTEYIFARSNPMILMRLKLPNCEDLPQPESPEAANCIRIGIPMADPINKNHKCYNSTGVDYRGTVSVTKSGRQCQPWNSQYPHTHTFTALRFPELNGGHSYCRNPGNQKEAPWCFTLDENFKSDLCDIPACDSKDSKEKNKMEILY
pKd: −log10 of the molar value.
readoutLabel: pKd

* ERR1-TOP54 chimeric rabbit/human Fab (Fab, V domains shown, Chimeric rabbit/human Fab with His tag, expressed in E. coli (pET11a); lambda light chain) VH: QSLEESGGRLVTPGTPLTLTCTASGFSLSDYYMSWVRQAPGEGLEWIGTIYGGSGNTWYATWAKGRFTISKTSTTVDLKITSPTTEDTATYFCARDFGLSTGGLWGPGTLVTISS VL: SYELTQLPSVSVSLGQTARITCGGNSIGSKAVNWYQQKPGLAPGLLIYDDDERPSGVPDRFSGSNSGDTATLTISGAQAGDEADYYCQLWDSSARAFVFGGGTQLTVTG | 6.84
* ERR1-316 chimeric rabbit/human Fab (Fab, V domains shown, Chimeric rabbit/human Fab with His tag, expressed in E. coli (pET11a); lambda light chain) VH: QEQLEESGGRLVTPGTPLTLTCTASGFFLSSYYVSWVRQAPGKGLEWIGAIGTGGSAYYASWAKSRSTITRNTNLSTVTLKMTSLTAADTATYFCARDHPNYGMDLWGPGTLVTVSS VL: SYELTQLPSVSVSLGQTARITCGGNSIGSKAVNWYQQKPGLAPGLLIYDDDERPSGVPDRFSGSNSGDTATLTISGAQAGDEADYYCQLWDSSTGAYAFGGGTQLTVTG | 6.92
* ERR1-TOP22 chimeric rabbit/human Fab (Fab, V domains shown, Chimeric rabbit/human Fab with His tag, expressed in E. coli (pET11a); lambda light chain) VH: QSLEESGGRLVTPGTPLTLTCTVSGFSLSSYYMSWVRQAPGKGLEWIGTISSSGSTYYASWVKGRFTISKTSTTVDLKMTSLTTEDTATYFCARDLDYDMDLWGPGTLVTVSS VL: SYELTQLPSVSVSLGQTARITCGGNSIGSKAVHWYQQKPGLAPGLLIYNDDERPSGVPDRFSGSNSGDTATLTISGAQAGDEADYYCQLWDNNAAVFGGGTQLTVTG | 6.96
* ERR1-301 chimeric rabbit/human Fab (Fab, V domains shown, Chimeric rabbit/human Fab with His tag, expressed in E. coli (pET11a); lambda light chain) VH: QEQLEESGGGLVTPGGSLTLTCTASGFTISTYHMSWVRQAPGKGLEWIGSIYAGSGSTYYASWVNGRFTISSNTTQNTVSLQMNSLTVADTATYFCARDHPSYGMDLWGPGTLVTVSS VL: SYELTQLPSVSVSLGQTARITCGGNSIGSKAVNWYQQKPGLAPGLLIYDDDERPSGVPDRFSASNSGDTATLTISGAQAEDEADYYCQLWDSSAVAYVFGGGTQLTVTG | 6.93
* ERR1-TOP4 chimeric rabbit/human Fab (Fab, V domains shown, Chimeric rabbit/human Fab with His tag, expressed in E. coli (pET11a); lambda light chain) VH: QSVEESGGRLVTPGTPLTLTCTASGIDLSRYAVNWVRQAPGKGLEWIGVISGSGTTYYASWAKGRFTISKTSTTVDLKITSPTTEDTATYFCARGWATDGIFDYDDTFNLWGPGTLVTVSS VL: SYELTQLPSVSVSLGQTARITCGGDSIESKAVHWYQQKPGLAPGLLVYNDDERPSGVPDRFSGSNSGDTATLTISGAQAGDEADYYCQLWDGSAYVFGGGTQLTVTG | 6.62
